TARGET_DESC: N1-fused SRC kinases
MEASUREMENT_PROTOCOL: split reporter (BiFC, NanoBiT); Gaussia princeps luciferase complementation assay in human HEK293T cells; Gluc2 at the N terminus of SKAP1 or SKAP2 (N2), Gluc1 at the N terminus (N1) or C terminus (C1) of the SRC kinase; 100 ng plasmid pair, PEI; luminescence read in lysate one day later; normalized luminescence ratio (NLR), given relative to wild type or to SKAP2
PROPERTY_MEASURED: wild-type normalized NLR, mean over SRC kinases

Answered cases to consult:
BINDER	OBSERVED
SKAP1 ΔSH3 mutant, N2-fused (domain or fragment) MQAAALPEEIRWLLEDAEEFLAEGLRNENLSAVARDHRDHILRGFQQIKARYYWDFQPQGGDIGQDSSDDNHSGTLGLSLTSDAPFLSDYQDEGMEDIVKGAQELDNVIKQGYLEKKSKDHSFFGSEWQKRWCVVSRGLFYYYANEKSKQPKGTFLIKGYGVRMAPHLRRDSKKESCFELTSQDRRSYEFTATSPAEARDWVDQISFLLKDLSSLTIPYEEDEEEEEKEETYDDIDGFDSPSCGSQCRPTILPGSVGIKEPTEEKEEEDIYEVLPDEEHDLEEDESGTRRK	1.51
SKAP1 ΔLink1PH deletion mutant, N2-fused (natural protein) MQAAALPEEIRWLLEDAEEFLAEGLRNENLSAVARDHRDHILRGFQQIKARYYWDFQPQGGDIGQDDLSSLTIPYEEDEEEEEKEETYDDIDGFDSPSCGSQCRPTILPGSVGIKEPTEEKEEEDIYEVLPDEEHDLEEDESGTRRKGVDYASYYQGLWDCHGDQPDELSFQRGDLIRILSKEYNMYGWWVGELNSLVGIVPKEYLTTAFEVEER	1.57
SKAP1 ΔPH deletion mutant, N2-fused (natural protein) MQAAALPEEIRWLLEDAEEFLAEGLRNENLSAVARDHRDHILRGFQQIKARYYWDFQPQGGDIGQDSSDDNHSGTLGLSLTSDAPFLSDYQDEGMEDIVKGAQELDDLSSLTIPYEEDEEEEEKEETYDDIDGFDSPSCGSQCRPTILPGSVGIKEPTEEKEEEDIYEVLPDEEHDLEEDESGTRRKGVDYASYYQGLWDCHGDQPDELSFQRGDLIRILSKEYNMYGWWVGELNSLVGIVPKEYLTTAFEVEER	1.35

P = SKAP1 Link2SH3 mutant, N2-fused (domain or fragment) SSLTIPYEEDEEEEEKEETYDDIDGFDSPSCGSQCRPTILPGSVGIKEPTEEKEEEDIYEVLPDEEHDLEEDESGTRRKGVDYASYYQGLWDCHGDQPDELSFQRGDLIRILSKEYNMYGWWVGELNSLVGIVPKEYLTTAFEVEE
Q = SKAP1 DomDIM mutant, N2-fused (domain or fragment) MQAAALPEEIRWLLEDAEEFLAEGLRNENLSAVARDHRDHILRGFQQIKARYYWDFQPQGGDIGQDSSDDNHSGTLGLSLTSDAPFLSDYQDEGMEDIV
*Q* // task: argmin of wild-type normalized NLR, mean over SRC kinases over [ P , Q ] Answer by stating the label of the chosen item.
*A* Q
(Q: 0.11, P: 0.29)
